Tested on: adipocytes
Test: Triglyceride accumulation assay in adipocytes
Format: cell-based, human
Settings: differentiating adipocytes transfected with oligomeric compound; Table 75
Method: The triglyceride accumulation assay measures the synthesis of triglyceride by adipocytes. Triglyceride accumulation is measured using the Infinity™ Triglyceride reagent kit (Sigma-Aldrich, St. Louis, Mo.). […] Triglyceride accumulation is measured based on the amount of glycerol liberated from triglycerides by the enzyme lipoprotein lipase. […] Dye absorbance, which is proportional to the concentration of glycerol, is measured at 515 nm using an UV spectrophotometer. […]
In the oligonucleotide strings, read from the 5' end, every base follows the letter of its sugar. An asterisk marks phosphorothioate; unmarked linkages are phosphodiester. Other units and linkages are bracketed, terminal groups are in braces. A string of capitals states the bases alone. e = 2'-O-(2-methoxyethyl) (MOE); [5mC] = 5-methylcytosine

{"columns": ["substance", "TG (triglyceride accumulation)"],
 "data": [
  ["327952 (antisense e[5mC]*eT*eA*e[5mC]*eG*e[5mC]*eG*eT*eA*eT*eT*e[5mC]*eT*eT*eA*eA*eG*e[5mC]*eA*eA*eT*eA) [compound 327952]", "93 percentage of untreated control (UTC)"],
  ["344277 (antisense AAUACAUACUUCUUUACAUUCCA; all 2'-MOE, all phosphorothioate, methylation of C and T or U not given here) [compound 344277]", "75 percentage of untreated control (UTC)"],
  ["328097 (antisense eT*eG*eT*e[5mC]*eA*eG*eA*eT*eA*eA*eA*e[5mC]*eA*eG*eA*eG*eT*eG*eG*eA*eA) [compound 328097]", "65 percentage of untreated control (UTC)"],
  ["346910 (GCAAUCAGCUAACUACACUGCCU; all 2'-MOE, all phosphorothioate, methylation of C and T or U not given here) [compound 346910]", "80 percentage of untreated control (UTC)"]
]}

---

system: BJ, B16-F10, T47D, T47Dp53 and HeLa cells; assay: Cell cycle assay (propidium iodide flow cytometry), cell line panel; assay type: cell-based; conditions: 150 nM oligomeric compound, 4.5 μg/ml LIPOFECTIN, after 72 hours, propidium iodide flow cytometry
In the oligonucleotide strings, read from the 5' end, every base follows the letter of its sugar. An asterisk marks phosphorothioate; unmarked linkages are phosphodiester. Other units and linkages are bracketed, terminal groups are in braces. A string of capitals states the bases alone. e = 2'-O-(2-methoxyethyl) (MOE); [5mC] = 5-methylcytosine; d = 2'-deoxy (DNA)
readout.type: S (percentage of cells in phase of the cell cycle) (%)

{"columns": ["substance", "measured.target", "result"],
 "data": [
  ["327909 (antisense e[5mC]*e[5mC]*e[5mC]*eA*eA*e[5mC]*eA*eA*e[5mC]*eA*eT*eG*eA*eA*eA*e[5mC]*eT*eA*e[5mC]*e[5mC]*eT*eA) [compound 327909]", "BJ, B16-F10, T47D, T47Dp53 and HeLa cells", 30.1],
  ["327888 (antisense eA*eA*eT*eG*e[5mC]*e[5mC]*e[5mC]*e[5mC]*eT*eA*eA*eA*eA*eA*eT*e[5mC]*e[5mC]*eT*eT*eA*eT) [compound 327888]", "BJ, B16-F10, T47D, T47Dp53 and HeLa cells", 29.5],
  ["327910 (antisense eT*eG*eA*eT*eA*eG*e[5mC]*e[5mC]*e[5mC]*eT*eG*eT*eA*e[5mC]*eA*eA*eT*eG*e[5mC]*eT*eG*e[5mC]*eT) [compound 327910]", "BJ, B16-F10, T47D, T47Dp53 and HeLa cells", 33],
  ["327903 (antisense eA*eA*e[5mC]*eT*eA*eT*eA*e[5mC]*eA*eA*e[5mC]*e[5mC]*eT*eA*e[5mC]*eT*eA*e[5mC]*e[5mC]*eT*e[5mC]*eA) [compound 327903]", "BJ, B16-F10, T47D, T47Dp53 and HeLa cells", 30.9],
  ["327904 (antisense eA*e[5mC]*eT*e[5mC]*eA*e[5mC]*e[5mC]*eG*eA*e[5mC]*eA*eG*e[5mC]*eG*eT*eT*eG*eA*eA*eT*eG*eT*eT) [compound 327904]", "BJ, B16-F10, T47D, T47Dp53 and HeLa cells", 29.5],
  ["328364 (eT*e[5mC]*eT*eT*eA*dA*dG*dT*d[5mC]*dA*d[5mC]*dA*dA*dA*dT*e[5mC]*eA*eG*e[5mC]*eA) [compound 328364]", "BJ, B16-F10, T47D, T47Dp53 and HeLa cells", 24.2],
  ["327905 (antisense e[5mC]*eA*eG*eA*e[5mC]*eT*e[5mC]*e[5mC]*eG*eG*eT*eG*eG*eA*eA*eT*eG*eA*eA*eG*eG*eA) [compound 327905]", "BJ, B16-F10, T47D, T47Dp53 and HeLa cells", 28.1],
  ["327901 (antisense eT*eG*eA*eG*e[5mC]*eT*eA*e[5mC]*eA*eG*eT*eG*e[5mC]*eT*eT*e[5mC]*eA*eT*e[5mC]*eT*e[5mC]*eA) [compound 327901]", "BJ, B16-F10, T47D, T47Dp53 and HeLa cells", 44.9],
  ["340365 (antisense TACTTTATATAGAACACAAG; sugars from the 5' end e5 d10 e5, all phosphorothioate, methylation of C not given here) [compound 340365]", "BJ, B16-F10, T47D, T47Dp53 and HeLa cells", 29.4],
  ["328394 (eG*eT*eT*eT*eT*dT*dT*d[5mC]*dA*dA*dA*dT*d[5mC]*d[5mC]*d[5mC]*eA*eA*eA*e[5mC]*eT) [compound 328394]", "BJ, B16-F10, T47D, T47Dp53 and HeLa cells", 24.5],
  ["327889 (antisense eG*eT*eG*eG*eT*eA*eA*eT*e[5mC]*e[5mC]*e[5mC]*eT*eG*eG*e[5mC]*eA*eA*eT*eG*eT*eG*eA*eT) [compound 327889]", "BJ, B16-F10, T47D, T47Dp53 and HeLa cells", 32.5]
]}

---

tested on: PEPCK-c; experiment: PEPCK-c mRNA expression in HepG2 cells; assay type: cell-based, human; conditions: Experiment 3, basal (no insulin), HepG2 cells, 48 hours post-transfection
In the oligonucleotide strings, read from the 5' end, every base follows the letter of its sugar. An asterisk marks phosphorothioate; unmarked linkages are phosphodiester. Other units and linkages are bracketed, terminal groups are in braces. A string of capitals states the bases alone. e = 2'-O-(2-methoxyethyl) (MOE); [5mC] = 5-methylcytosine; d = 2'-deoxy (DNA)
readout.type: PEPCK-c (% UTC)

{"columns": ["substance", "measured.target", "readout.type", "result"],
 "data": [
  ["328685 (e[5mC]*eG*eG*e[5mC]*e[5mC]*dG*dG*dA*dG*d[5mC]*d[5mC]*dA*dT*dA*dG*eA*e[5mC]*eT*e[5mC]*eG; antisense) [compound 328685]", "PEPCK-c", "PEPCK-c (% UTC)", 219],
  ["328773 (antisense eT*eA*e[5mC]*eT*eT*dT*dA*d[5mC]*dT*d[5mC]*d[5mC]*dA*dA*dG*dG*eT*eT*eT*eT*eA) [compound 328773]", "PEPCK-c", "PEPCK-c (% UTC)", 138],
  ["328759 (antisense eG*eA*eG*eG*eG*dA*dT*dT*dG*dT*dA*dT*dG*dA*dA*e[5mC]*eA*eT*e[5mC]*eT) [compound 328759]", "PEPCK-c", "PEPCK-c (% UTC)", 98],
  ["340362 (antisense GACTGTTGAATCTCATGGCA; 5-10-5 gapmer, wing sugar and linkages not given here, further chemistry not given here) [compound 340362]", "PEPCK-c", "PEPCK-c (% UTC)", 168],
  ["328384 (eT*e[5mC]*eA*e[5mC]*eG*dT*dG*dG*dA*dG*dA*dG*dG*dA*dG*eT*eT*eA*eA*eA; antisense) [compound 328384]", "PEPCK-c", "PEPCK-c (% UTC)", 142],
  ["186515 (antisense eA*eG*eG*eT*eA*dG*d[5mC]*dT*dT*dT*dG*dA*dT*dT*dA*eT*eG*eT*eA*eA) [compound 186515]", "PEPCK-c", "PEPCK-c (% UTC)", 70]
]}

---

Fold Increase over UTC (caspase-3 activity, apoptosis) values, listed per item
system: T47D cells; experiment: Caspase-3 activity assay (apoptosis) in T47D cells; settings: T47D cells, 200 nM oligomeric compound, 48 hours; experiment of Table 11
In the oligonucleotide strings, read from the 5' end, every base follows the letter of its sugar. An asterisk marks phosphorothioate; unmarked linkages are phosphodiester. Other units and linkages are bracketed, terminal groups are in braces. A string of capitals states the bases alone. e = 2'-O-(2-methoxyethyl) (MOE); [5mC] = 5-methylcytosine; d = 2'-deoxy (DNA)
readout.type: Fold Increase over UTC (caspase-3 activity, apoptosis) (fold)

{"columns": ["substance", "result"],
 "data": [
  ["328435 (antisense eT*e[5mC]*eT*eA*eA*dG*dG*dG*dG*dT*d[5mC]*dA*d[5mC]*dA*dG*eA*eA*eG*eG*eT) [compound 328435]", 1.3],
  ["328426 (antisense eG*eG*eT*eT*eG*dG*d[5mC]*d[5mC]*dG*d[5mC]*dA*dG*dA*d[5mC]*dT*e[5mC]*eG*eT*eA*e[5mC]) [compound 328426]", 1.3],
  ["328386 (eA*e[5mC]*e[5mC]*eT*eG*dT*dG*dT*dA*dA*d[5mC]*dA*dG*d[5mC]*d[5mC]*eG*eT*eG*eT*eA; antisense) [compound 328386]", 0.7]
]}
